Data credit: the Biogen ADME set (Fang et al. 2023)

Use 20 mL/min/kg as the dividing line for intrinsic clearance, human liver microsomes, with the line itself on the y side and lower values as n.

Prompt: Evaluate CC(=O)NCCCC(=O)Nc1ccc(Oc2ccccc2Cl)cc1 : intrinsic clearance, human liver microsomes at minimum 20 mL/min/kg?
Completion: n

Prompt: Evaluate CN1CCC(NC(=O)COc2ccc(C#N)cc2)CC1 : intrinsic clearance, human liver microsomes at minimum 20 mL/min/kg?
Completion: n

Prompt: Evaluate CCN(CC#N)C(=O)c1nn(-c2ccc(F)cc2)c2c1CCCC2 : intrinsic clearance, human liver microsomes at minimum 20 mL/min/kg?
Completion: y

Prompt: Evaluate Cn1cc(-c2ccc3nnc(C(F)(F)c4ccc5ncccc5c4)n3n2)cn1 : intrinsic clearance, human liver microsomes at minimum 20 mL/min/kg?
Completion: n

Prompt: Evaluate Cc1nc(CC2CCN(S(=O)(=O)c3cn(C)cn3)CC2)cc(NC2CCCC2)n1 : intrinsic clearance, human liver microsomes at minimum 20 mL/min/kg?
Completion: n

Prompt: Evaluate O=C(CC1CCCC1)NCc1nnc2n1CCC2 : intrinsic clearance, human liver microsomes at minimum 20 mL/min/kg?
Completion: n

Prompt: Evaluate COc1ccc(-c2nc(C3CCN(C(=O)c4sc(C)nc4C)CC3)[nH]c2C(N)=O)cc1 : intrinsic clearance, human liver microsomes at minimum 20 mL/min/kg?
Completion: n

Prompt: Evaluate Fc1cc(-c2ccncc2)ccc1CNc1ncccn1 : intrinsic clearance, human liver microsomes at minimum 20 mL/min/kg?
Completion: y

Prompt: Evaluate CCOC(=O)c1cccnc1-c1cccc2ccnn12 : intrinsic clearance, human liver microsomes at minimum 20 mL/min/kg?
Completion: n

Prompt: Evaluate O=C1NCCN(C(=O)c2ccc3nccn3c2)C1c1ccccc1C(F)(F)F (centres undefined) : intrinsic clearance, human liver microsomes at minimum 20 mL/min/kg?
Completion: n

Prompt: Evaluate CC(=O)NCCOc1ccc2ccccc2n1 : intrinsic clearance, human liver microsomes at minimum 20 mL/min/kg?
Completion: n

Prompt: Evaluate OC[C@@H](c1ccccc1)n1cc(CCc2ccccc2)nn1 : intrinsic clearance, human liver microsomes at minimum 20 mL/min/kg?
Completion: y

Prompt: Evaluate COc1ccc(Cl)cc1-c1cccc(C(=O)NCCN2CCCC2=O)c1 : intrinsic clearance, human liver microsomes at minimum 20 mL/min/kg?
Completion: y

Prompt: Evaluate N#Cc1cc(F)c(N2CCN(CCO)CC2)c(F)c1 : intrinsic clearance, human liver microsomes at minimum 20 mL/min/kg?
Completion: n

Prompt: Evaluate COc1ccc(CNC(=O)c2cc(-c3cncc(C)c3)ncc2-c2nccs2)nc1OC : intrinsic clearance, human liver microsomes at minimum 20 mL/min/kg?
Completion: n

Prompt: Evaluate COc1cccc(OCCCn2cncc2-c2cc3c(cc2OC)OCCCO3)c1 : intrinsic clearance, human liver microsomes at minimum 20 mL/min/kg?
Completion: n

Prompt: Evaluate CC(/C=C/C(=O)NO)=C\[C@@H](C)C(=O)c1ccc(N(C)C)cc1 : intrinsic clearance, human liver microsomes at minimum 20 mL/min/kg?
Completion: y

Prompt: Evaluate CN(C)C1(CNC(=O)N2CCCC(C)(C)CC2)CCOCC1 : intrinsic clearance, human liver microsomes at minimum 20 mL/min/kg?
Completion: n

Prompt: Evaluate Cc1nc(CN2CCC(CNC(=O)COc3ccccc3Cl)CC2)c[nH]1 : intrinsic clearance, human liver microsomes at minimum 20 mL/min/kg?
Completion: n
